Each recorded value in this set is attributed to patent US11285156B2.

Molecular target: GDP-bound KRAS protein (aa 1-169), containing both G12C and C118A amino acid substitutions (Homo sapiens (Human), UniProt P01116, C118A/G12C)
Sequence (P01116 other isoform, or with tags, fused parts or gaps G12C/C118A): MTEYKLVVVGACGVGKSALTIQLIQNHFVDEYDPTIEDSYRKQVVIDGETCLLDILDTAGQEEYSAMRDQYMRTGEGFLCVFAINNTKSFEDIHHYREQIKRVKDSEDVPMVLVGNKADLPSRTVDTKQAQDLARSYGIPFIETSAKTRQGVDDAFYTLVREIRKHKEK
Assay: Coupled nucleotide exchange assay (SOS-mediated nucleotide exchange, AlphaScreen)
Type: biochemical
Details: 5 min compound pre-incubation
READOUT_LABEL: Coupled exchange IC50 (5 min; μM) (µM)
// return numeric value only (unit: µM, not printed)

Problem: For C=CC(=O)N1C[C@H](C)N(c2nc(=O)n(-c3c(C)cc([S+](C)[O-])cc3C(C)C)c3nc(-c4ccccc4C)c(Cl)cc23)C[C@H]1C (single isomer, unassigned) [Example 213-1] , what is its reported Coupled exchange IC50 (5 min; μM)?
Result: 1.5

Problem: // next record [2H]C1([2H])N(C(=O)C=C)C([2H])([2H])C([2H])([2H])N(c2nc(=O)n(-c3c(C)ccnc3C(C)C)c3nc(-c4c(O)cccc4F)c(F)cc23)C1([2H])[2H] (atropisomer, axis not shown; (M))
Result: 0.408

Problem: // next record C=CC(=O)N1C[C@H](C)N(c2nc(=O)n(-c3c(C)ccnc3C(C)C)c3nc(-c4ccccc4C(C)O)c(Cl)cc23)C[C@H]1C (mixture of isomers)
Result: 0.054

Problem: // next record C=CC(=O)N1C[C@H](C)N(c2nc(=O)n(-c3c(C)cc(CC)nc3C(C)C)c3nc(-c4ccccc4F)c(Cl)cc23)C[C@H]1C (single isomer, unassigned) [Example 166-2]
Result: 1.032

Problem: // next record C=CC(=O)N1C[C@H](C)N(c2nc(=O)n(-c3c(C)nc(Cl)nc3C(C)C)c3nc(-c4ccccc4F)c(Cl)cc23)C[C@H]1C (single isomer, unassigned) [Example 191-1]
Result: 2.99

Problem: // next record `C=CC(=O)N1C[C@H](C)N(c2nc(=O)n(-c3c(N)ncnc3C(C)C)c3nc(-c4c(O)cccc4F)c(Cl)cc23)C[C@H]1C`
Result: 0.126

Problem: // next record `C=CC(=O)N1C[C@H](C)N(c2nc(=O)n(C3CCCCC3)c3nc(-c4ccccc4F)c(Cl)cc23)C[C@H]1C`
Result: 13.4

Problem: // next record C=CC(=O)N1C[C@H](C)N(c2nc(=O)n(-c3c(C)ccnc3C(C)C)c3nc(C45CCCCC4C5)c(Cl)cc23)C[C@H]1C (atropisomer, axis not shown; (M))
Result: 0.932

Problem: // next record C=CC(=O)N1C[C@H](C)N(c2nc(=O)n(-c3c(C)cc(CN(C)C)cc3C(C)C)c3nc(-c4ccccc4F)c(Cl)cc23)C[C@H]1C (single isomer, unassigned) [Example 121-3]
Result: 0.066

Problem: // next record C=CC(=O)N1C[C@H](C)N(c2nc(=O)n(-c3c(C)cc(C4CC4)nc3C(C)C)c3nc(-c4ccccc4F)c(Cl)cc23)C[C@H]1C (single isomer, unassigned) [Example 164-1]
Result: 0.066

Problem: // next record C=CC(=O)N1C[C@H](C)N(c2nc(=O)n(-c3c(C(C)C)cc(N4CCC4)nc3C(C)C)c3nc(-c4ccccc4F)c(Cl)cc23)C[C@H]1C (single isomer, unassigned) [Example 182-2]
Result: 0.187

Problem: // next record C=CC(=O)N1C[C@H](C)N(c2nc(=O)n(-c3c(C)nc(CC)nc3C(C)C)c3nc(-c4ccccc4F)c(Cl)cc23)C[C@H]1C (single isomer, unassigned)
Result: 0.132

Problem: // next record C=CC(=O)N1C[C@H](C)N(c2nc(=O)n(-c3c(N)ncnc3C(C)C)c3nc(-c4ccccc4F)c(Cl)cc23)C[C@H]1C (single isomer, unassigned) [Example 189-1]
Result: 0.036

Problem: // next record C=CC(=O)N1C[C@H](C)N(c2nc(=O)n(-c3c(C)nc(C(C)C)nc3C(C)C)c3nc(-c4ccccc4F)c(Cl)cc23)C[C@H]1C (single isomer, unassigned)
Result: 0.223

Problem: // next record [2H]C1([2H])CN(C(=O)C=C)CC([2H])([2H])N1c1nc(=O)n(-c2c(C)ccnc2C(C)C)c2nc(-c3c(O)cccc3F)c(F)cc12 (atropisomer, axis not shown; (M))
Result: 0.468

Problem: // next record `C=CC(=O)N1C[C@H](C)N(c2nc(=O)n(-c3c(C(C)C)ncnc3C(C)C)c3nc(-c4cc(O)ccc4C)c(Cl)cc23)C[C@H]1C`
Result: 0.069

Problem: // next record C=CC(=O)N1C[C@H](C)N(c2nc(=O)n(-c3c(C)nc(F)nc3C(C)C)c3nc(-c4ccccc4F)c(Cl)cc23)C[C@H]1C (single isomer, unassigned)
Result: 0.03

Problem: // next record `C=CC(=O)N1C[C@H](C)N(c2nc(=O)n(-c3c(C(C)C)nc(N(C)C(C)=O)nc3C(C)C)c3nc(-c4ccccc4F)c(Cl)cc23)C[C@H]1C`
Result: 0.09

Problem: // next record C=CC(=O)N1C[C@H](C)N(c2nc(=O)n(-c3c(C)cc(S(C)(=O)=O)cc3C(C)C)c3nc(-c4ccccc4F)c(Cl)cc23)C[C@H]1C (single isomer, unassigned) [Example 215-1]
Result: 3.79

Problem: // next record C=CC(=O)N1C[C@H](C)N(c2nc(=O)n(-c3c(C)cc(CC)nc3C(C)C)c3nc(-c4ccccc4F)c(Cl)cc23)C[C@H]1C (single isomer, unassigned) [Example 166-1]
Result: 0.049

Problem: // next record C=CC(=O)N1C[C@H](C)N(c2nc(=O)n(-c3c(C)nc(C=C)nc3C(C)C)c3nc(-c4ccccc4F)c(Cl)cc23)C[C@H]1C (single isomer, unassigned)
Result: 0.071

Problem: // next record C=CC(=O)N1C[C@H](C)N(c2nc(=O)n(-c3c(C)cc([S+](C)[O-])cc3C(C)C)c3nc(-c4ccccc4C)c(Cl)cc23)C[C@H]1C (single isomer, unassigned) [Example 213-4]
Result: 1.51

---

Target: GDP-bound KRAS protein (aa 1-169), containing both G12C and C118A amino acid substitutions (Homo sapiens (Human), UniProt P01116, C118A/G12C)
Test: Coupled nucleotide exchange assay (SOS-mediated nucleotide exchange, AlphaScreen)
Assay type: biochemical
Conditions: read-out: Coupled exchange IC50 (5 min; μM); 5 min compound pre-incubation
READOUT_LABEL: log10 of IC50 (log10 of the value in µM)
Field: value | Transform: log10 | Quantity: IC50 | Unit: µM

Problem: For C=CC(=O)N1C[C@H](C)N(c2nc(=O)n(-c3c(C)ccnc3C(C)C)c3nc(-c4ccccc4C(=O)O)c(Cl)cc23)C[C@H]1C (atropisomer, axis not shown; (M)) , what is its reported log10 of IC50?
Result: -0.86

Problem: // next record `C=CC(=O)N1C[C@H](C)N(c2nc(=O)n(-c3c(C(C)C)ncnc3C(C)C)c3nc(-c4ccccc4C#N)c(Cl)cc23)C[C@H]1C`
Result: -0.12

Problem: // next record `C=CC(=O)N1CCN(c2nc(=O)n(CC(C)(C)C)c3ncccc23)CC1`
Result: 2.40

Problem: // next record C=CC(=O)N1C[C@H](C)N(c2nc(=O)n(-c3c(C)ccnc3C(C)C)c3nc(-c4ccccc4N(C)C(C)=O)c(Cl)cc23)C[C@H]1C (atropisomer, axis not shown; (M))
Result: -0.45

Problem: // next record C=CC(=O)N1C[C@H](C)N(c2nc(=O)n(-c3c(CN(C)C)ccnc3C(C)C)c3nc(-c4ccccc4F)c(Cl)cc23)C[C@H]1C (single isomer, unassigned) [Example 80-16-1]
Result: -1.21

Problem: // next record C=CC(=O)N1C[C@H](C)N(c2nc(=O)n(-c3c(C)ccnc3C(C)C)c3nc(-c4ccccc4N(C)C)c(Cl)cc23)C[C@H]1C (atropisomer, axis not shown; (M))
Result: -1.36

Problem: // next record C=CC(=O)N1C[C@H](C)N(c2nc(=O)n(-c3c(Cl)ncnc3C(C)C)c3nc(-c4ccccc4F)c(Cl)cc23)C[C@H]1C [Example 102-5]
Result: -1.15

Problem: // next record C=CC(=O)N1C[C@H](C)N(c2nc(=O)n3c4nc(c(Cl)cc24)-c2ccccc2C/C=C/Cc2cccc(C(C)C)c2-3)C[C@H]1C (single isomer, unassigned) [Example 146-1-1]
Result: 0.97

Problem: // next record C=CC(=O)N1C[C@H](C)N(c2nc(=O)n(-c3c(C)ccnc3C(C)C)c3nc(-c4ccccc4C)c(F)cc23)C[C@H]1C (atropisomer, axis not shown; (M))
Result: -0.59

Problem: // next record `C=CC(=O)N1C[C@H](C)N(c2nc(=O)n(-c3c(C(C)C)ncnc3C(C)C)c3nc(-c4ccccc4C(C)C)c(Cl)cc23)C[C@H]1C`
Result: -2.22

Problem: // next record C=CC(=O)N1C[C@H](C)N(c2nc(=O)n(-c3c(C)ccnc3C(C)C)c3nc(-c4ccccc4C(N)=O)c(F)cc23)C[C@H]1C (atropisomer, axis not shown; (M))
Result: -0.41

Problem: // next record C=CC(=O)N1C[C@H](C)N(c2nc(=O)n(-c3c(C(C)C)ccnc3C(C)C)c3nc(-c4ccccc4C(C)C)c(Cl)cc23)C[C@H]1C (single isomer, unassigned)
Result: -0.95

Problem: // next record C=CC(=O)N1C[C@H](C)N(c2nc(=O)n(-c3c(C)ccnc3C(C)C)c3nc(-c4c(F)cccc4C(N)=O)c(Cl)cc23)C[C@H]1C (atropisomer, axis not shown; (M))
Result: -1.72

Problem: // next record C=CC(=O)N1C[C@H](C)N(c2nc(=O)n(-c3c(C)ccnc3C(C)C)c3nc(-c4cc(O)ccc4F)c(Cl)cc23)C[C@H]1C (atropisomer, axis not shown; (M))
Result: -1.27

Problem: // next record C=CC(=O)N1C[C@H](C)N(c2nc(=O)n(-c3c(CN4CCCC4)cccc3C(C)C)c3nc(-c4ccccc4F)c(Cl)cc23)C[C@H]1C (single isomer, unassigned) [Example 80-10-2]
Result: -1.28

Problem: // next record C=CC(=O)N1C[C@H](C)N(c2nc(=O)n(-c3c(C)ccnc3C(C)C)c3nc(-c4cccc(C)c4F)c(Cl)cc23)C[C@H]1C (atropisomer, axis not shown; (M))
Result: -1.13

Problem: // next record `C=CC(=O)N1C[C@H](C)N(c2nc(=O)n(-c3c(C)ccnc3C(C)C)c3nc(-c4ncccc4OC)c(Cl)cc23)C[C@H]1C`
Result: 0.09

Problem: // next record `C=CC(=O)N1C[C@H](C)N(c2nc(=O)n(-c3c(C(C)C)nc(OCCOC)nc3C(C)C)c3nc(-c4ccccc4F)c(Cl)cc23)C[C@H]1C`
Result: -0.43

Problem: // next record C=CC(=O)N1C[C@@H](C)N(c2nc(=O)n(-c3c(C)ccnc3C(C)C)c3nc(-c4ccccc4F)c(Cl)nc23)[C@@H](C)C1 [Example 106-7-2]
Result: -0.89

Problem: // next record `C=CC(=O)N1C[C@H](C)N(c2nc(=O)n(-c3c(C(C)C)nc(C4CC4)nc3C(C)C)c3nc(-c4ccccc4F)c(Cl)cc23)C[C@H]1C`
Result: -1.02

Problem: // next record `C=CC(=O)N1C[C@H](C)N(c2nc(=O)n(-c3c(C(C)C)cncc3C(C)C)c3nc(-c4ccccc4F)c(Cl)cc23)C[C@H]1C`
Result: -1.24
